- study.target: UniProt:Q9WTR4
- Sequence (Q9WTR4 whole entry): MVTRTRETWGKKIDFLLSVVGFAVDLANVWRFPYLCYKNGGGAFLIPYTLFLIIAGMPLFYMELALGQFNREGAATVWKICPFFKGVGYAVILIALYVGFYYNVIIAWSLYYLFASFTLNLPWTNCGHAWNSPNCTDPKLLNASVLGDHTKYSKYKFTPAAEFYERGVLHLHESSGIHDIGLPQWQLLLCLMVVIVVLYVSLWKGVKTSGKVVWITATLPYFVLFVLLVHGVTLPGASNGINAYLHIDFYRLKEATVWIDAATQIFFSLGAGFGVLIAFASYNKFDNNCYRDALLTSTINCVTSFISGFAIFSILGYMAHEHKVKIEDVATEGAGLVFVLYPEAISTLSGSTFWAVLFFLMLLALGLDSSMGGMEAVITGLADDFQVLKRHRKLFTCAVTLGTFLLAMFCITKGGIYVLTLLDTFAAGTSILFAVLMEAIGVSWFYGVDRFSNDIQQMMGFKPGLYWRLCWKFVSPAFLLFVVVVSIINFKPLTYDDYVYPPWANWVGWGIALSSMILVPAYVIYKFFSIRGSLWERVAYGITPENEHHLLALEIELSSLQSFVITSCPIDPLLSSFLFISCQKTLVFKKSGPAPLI
As shown below, each of these molecules has a reported IC50 value.

Example results:
Nc1c2c(nc3ccccc13)CCCC2O (centres undefined)    > 20 µM
Nc1c2c(nc3cc(F)ccc13)CCCC2O (centres undefined)    > 10 µM
Nc1c2c(nc3cc(Cl)ccc13)CCCC2O (centres undefined)    > 20 µM

// below: IC50 requested for another molecule
Q: Data request, read-out IC50, for CNc1c2c(nc3ccccc13)CCCC2O (centres undefined)
Ans: > 20 µM
